experimental.protocol: in vivo
conditions.used: Balb/c, mouse, po, 10 mg/kg
Description: AUC (0 to infinity) in Balb/c mouse at 10 mg/kg, po administered as single dose via gavage by LC-MS/MS analysis
reported.metric: AUC(0-inf) (µM·h)

| chemical.structure | reported.metric | number |
| --- | --- | --- |
| CC(C)OC(=O)N1CC2(C1)C(=O)N(Cc1nc3cc(Br)ccc3n1CCCCO)c1ccccc12 | AUC(0-inf) | 8.08 |

====

experimental.protocol: in vivo
conditions.used: Balb/c, mouse, po, 10 mg/kg
Description: Cmax in Balb/c mouse at 10 mg/kg, po administered as single dose via gavage by LC-MS/MS analysis

| chemical.structure | Cmax [µM] |
| --- | --- |
| CC(C)OC(=O)N1CC2(C1)C(=O)N(Cc1nc3cc(Br)ccc3n1CCCCO)c1ccccc12 | 3.32 |

====

experimental.protocol: in vivo
conditions.used: Balb/c, mouse, po, 10 mg/kg
Description: Tmax in Balb/c mouse at 10 mg/kg, po administered as single dose via gavage by LC-MS/MS analysis

| chemical.structure | Tmax, min |
| --- | --- |
| CC(C)OC(=O)N1CC2(C1)C(=O)N(Cc1nc3cc(Br)ccc3n1CCCCO)c1ccccc12 | 15 |
